- Assay: OD615 S. cerevisiae growth inhibition, permissive medium, pilot counter-assay, permissive growth control for S. cerevisiae lifespan shortening project (AID 705)
- Particulars: OD615, 24 h, at 10 µM, stronger effect = higher value

>  <Compound>
O=C(NC1CCCCC1)C(c1ccccc1)N1CCC2(CC1)OCCO2 (centres undefined)

>  <U>
%

>  <growth inhibition>
0.86

$$$$
>  <Compound>
CCOC(=O)Cn1c(=O)oc2cc(S(=O)(=O)NC3CCCc4ccccc43)ccc21 (centres undefined)

>  <U>
%

>  <growth inhibition>
-9.8

$$$$
>  <Compound>
Cc1cc(Nc2ccc(F)cc2Cl)n2nc(C)nc2n1

>  <U>
%

>  <growth inhibition>
-9.76

$$$$
>  <Compound>
CC(=O)N1CCc2cc(C(=O)CN3CCN(c4ccccc4F)CC3)ccc21

>  <U>
%

>  <growth inhibition>
-7.16

$$$$
>  <Compound>
O=C(Nc1cccnc1)C(Cc1ccccc1)n1cccc1 (centres undefined)

>  <U>
%

>  <growth inhibition>
-15.5

$$$$
>  <Compound>
CC1=C(C(=O)Nc2ccccc2C)C(c2ccccc2)NC(=O)N1 (centres undefined)

>  <U>
%

>  <growth inhibition>
0.05

$$$$
>  <Compound>
CCNC(=O)c1c(N)sc2c1CCCCC2

>  <U>
%

>  <growth inhibition>
-5.81

$$$$
>  <Compound>
N#C/C(=C1\CCCN1)c1ccc2ccccc2n1

>  <U>
%

>  <growth inhibition>
1.03

$$$$
>  <Compound>
Cc1ccc2c(CC(=O)O)coc2c1C

>  <U>
%

>  <growth inhibition>
3.31

$$$$
>  <Compound>
OCC1(C2=NOC(O)(C(F)(F)F)C2)CCCCC1 (centres undefined)

>  <U>
%

>  <growth inhibition>
-7.57

$$$$
>  <Compound>
COc1cccc(-c2nnc3n2N=C(C(C)(C)C)CS3)c1

>  <U>
%

>  <growth inhibition>
-5.97

$$$$
>  <Compound>
CCCNc1nc2c(c(=O)n(C)c(=O)n2C)n1Cc1ccc(F)cc1

>  <U>
%

>  <growth inhibition>
-3.24

$$$$
>  <Compound>
COCCNC(=O)NC1(C(F)(F)F)Oc2ccc(Cl)cc2O1 (centres undefined)

>  <U>
%

>  <growth inhibition>
-0.985

$$$$
>  <Compound>
O=C(Nc1ccccc1C(=O)N1CCOCC1)c1ccco1

>  <U>
%

>  <growth inhibition>
-6.66

$$$$
>  <Compound>
CC(C)CC(NC(=O)C1CCCCC1)C(=O)NCc1ccccn1 (centres undefined)

>  <U>
%

>  <growth inhibition>
1.21

$$$$
>  <Compound>
O=C(c1cc(-c2ccc(O)cc2)on1)N1CCc2ccccc2C1

>  <U>
%

>  <growth inhibition>
-16.4

$$$$
>  <Compound>
O=C(Nc1c(C(=O)N2CCCC2)cnn1-c1ccccc1)c1cccc(F)c1

>  <U>
%

>  <growth inhibition>
-7.52

$$$$
>  <Compound>
COc1ccc(-c2nnc(NC(=O)c3cc(Cl)ccc3Cl)o2)cc1

>  <U>
%

>  <growth inhibition>
4.57

$$$$
>  <Compound>
CCOc1ccc(C(=O)Nc2c3c(nn2-c2ccc(C)cc2)CS(=O)C3)cc1OCC (centres undefined)

>  <U>
%

>  <growth inhibition>
2.17

$$$$
>  <Compound>
O=C1C2CCCN2C(c2ccc(Br)cc2)N1c1ccc(F)cc1 (centres undefined)

>  <U>
%

>  <growth inhibition>
-4.66

$$$$
>  <Compound>
O=C(CCSCCC(=O)NCc1ccco1)NCc1ccco1

>  <U>
%

>  <growth inhibition>
3.59

$$$$
>  <Compound>
CCOC(=O)C1=C(C)N=c2s/c(=C\c3ccncc3)c(=O)n2C1c1ccc2c(c1)OCO2 (centres undefined)

>  <U>
%

>  <growth inhibition>
-12

$$$$
>  <Compound>
CC1Cc2ccccc2N1C(=O)CCS(=O)(=O)c1cccc2nonc12 (centres undefined)

>  <U>
%

>  <growth inhibition>
8.09

$$$$
>  <Compound>
Nc1c(C(=O)NCc2ccccc2)nnn1Cc1ccccc1

>  <U>
%

>  <growth inhibition>
-6.54

$$$$
